Reference for the values: patent US20240270821A1

assayed system: human glucagon receptor (human) (UniProt P47871)
Sequence (P47871 26-477): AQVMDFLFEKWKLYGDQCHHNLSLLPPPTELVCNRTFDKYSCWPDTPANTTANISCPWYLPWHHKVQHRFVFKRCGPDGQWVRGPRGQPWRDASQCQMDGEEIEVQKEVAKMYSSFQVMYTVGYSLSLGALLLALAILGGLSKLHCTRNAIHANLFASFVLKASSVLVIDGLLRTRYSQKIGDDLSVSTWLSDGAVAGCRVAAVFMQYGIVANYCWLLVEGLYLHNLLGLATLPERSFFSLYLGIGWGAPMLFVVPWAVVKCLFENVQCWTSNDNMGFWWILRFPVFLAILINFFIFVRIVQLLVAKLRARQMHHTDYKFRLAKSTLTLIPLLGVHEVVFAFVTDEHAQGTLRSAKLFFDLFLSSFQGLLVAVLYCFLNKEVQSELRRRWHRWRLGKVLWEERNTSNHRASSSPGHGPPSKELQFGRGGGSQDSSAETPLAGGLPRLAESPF
run description: cell-based or functional assay
Starred links: 1 amine or outer side, 2 acyl side, 3 side chain; linkers in the order of their positions; H or OH if unused. Non-standard residues stand in square brackets, D forms with d. Groups on a side chain read outwards from the residue. No end group written: not given here. *: point of attachment. C18 diacid = O=C(O)CCCCCCCCCCCCCCCCC(=O)*; γGlu = O=C(O)[C@H](CCC(=O)[*:2])N[*:1]; αMeF = C[C@](N)(Cc1ccccc1)C(=O)O; AEEA = NCCOCCOCC(=O)O; Aib = CC(C)(N)C(=O)O
Label label 1 for high-side Relative cAMP EC50 (at or above 6 nM) and label 0 for low-side Relative cAMP EC50 (below it).

Study these solved cases before continuing.
[[record]]
binder = "Y[Aib]QGT[αMeF]TSDYSILLDKIAAK([AEEA-AEEA-γGlu-C18 diacid])NFIEYLVEGGPSSGEPPPSEG-NH2 [Example 307]"
class_label = "label 0"

[[record]]
binder = "YXQGTXTSDXXIXLDXKAQXEFIEXLIEGGPPSXXPPPXGE (non-natural residues; acylated Lys; C-terminal amide; synthetic construct; SITE 2: note = 2-Aminoisobutyric Acid; SITE 6: note = alpha-methyl-2-fluoro-L-phenylalanine; SITE 10: note = 3-(4-Pyridyl)-L-alanine; SITE 11: note = alpha-methyl-L-serine; SITE 13: note = alpha-methyl-leucine; SITE 16: note = L-ornithine; SITE 17: note = Lysine is chemically mo) [Example 1195]"
class_label = "label 0"

[[record]]
binder = "YXQGTFTSDXSKXLDKKAQXAFIEYLIEXGPSSGAPPPSGS (synthetic construct; SITE 2: note = 2-Aminoisobutyric Acid; SITE 10: note = 3-(4-Pyridyl)-L-alanine; SITE 13: note = alpha-methyl-leucine; SITE 17: note = Lysine is chemically modified through conjugation of the epsilon-amino group of the Lysine side chain with (gamma-Glu)2-CO-(CH2)16-CO2H; SITE 20:) [Example 907]"
class_label = "label 0"

[[record]]
binder = "YXQGTFTSDFSXXLDKKAQXAFIEYLLEGGPSSXAPPPGGS (not fully specified; synthetic construct; SITE 2: note = 2-Aminoisobutyric Acid; SITE 12: note = L-ornithine; SITE 13: note = alpha-methyl-leucine; SITE 17: note = Lysine is chemically modified through conjugation of the epsilon-amino group of the Lysine side chain with (gamma-Glu)2-CO-(CH2)16-CO2H; SITE 20: note = 2-Am) [Example 770]"
class_label = "label 0"

[[record]]
binder = "YXQGTXTSDXSIXLDXKAQXEFIEXLQEGGPSSGAPPPSGS (non-natural residues, acylated Lys (AEEA-γGlu-C18 diacid), C-terminal amide; synthetic construct; SITE 2: note = 2-Aminoisobutyric Acid; SITE 6: note = alpha-methyl-2-fluoro-L-phenylalanine; SITE 10: note = 3-(4-Pyridyl)-L-alanine; SITE 13: note = alpha-methyl-leucine; SITE 16: note = L-ornithine; SITE 17: note = Lysine is chemically modified through conjugation of the epsil) [Example 643]"
class_label = "label 1"

[[record]]
binder = "YXQGTFTSDFSKXLDKKAQXAFIEYLIEGGESSGAPPPSGS (Lys acylated with AEEA-γGlu-C18 diacid; non-natural residues; C-amide; synthetic construct; SITE 2: note = 2-Aminoisobutyric Acid; SITE 13: note = alpha-methyl-leucine; SITE 17: note = Lysine is chemically modified through conjugation of the epsilon-amino group of the Lysine side chain with (2-[2-(2-Amino-ethoxy)-ethoxy]-acetyl)-(gamma-Glu)-CO-(CH2) 16-CO2H; SITE 20: n) [Example 215]"
class_label = "label 1"

[[record]]
binder = "YXQGTXTSDXXIXLDXKAQXEFIEXLIEGGPPSXXPPPXSE (non-natural residues; lipidated Lys AEEA-γGlu-C18 diacid; C-term amide; synthetic construct; SITE 2: note = 2-Aminoisobutyric Acid; SITE 6: note = alpha-methyl-2-fluoro-L-phenylalanine; SITE 10: note = 3-(4-Pyridyl)-L-alanine; SITE 11: note = alpha-methyl-L-serine; SITE 13: note = alpha-methyl-leucine; SITE 16: note = L-ornithine; SITE 17: note = Lysine is chemically mo) [Example 1196]"
class_label = "label 0"


# ---- query binder ----
Given YXQGTFTSDFSXXLDKKAQXAFIEYLIEXGPSSGAPPPSGS (synthetic construct; SITE 2: note = 2-Aminoisobutyric Acid; SITE 12: note = L-ornithine; SITE 13: note = alpha-methyl-leucine; SITE 17: note = Lysine is chemically modified through conjugation of the epsilon-amino group of the Lysine side chain with (2-[2-(2-Amino-ethoxy)-ethoxy]-acetyl)-(gamma-Glu)) [Example 796] , state whether its Relative cAMP EC50 is at least 6 nM.
label 0
